assay: Oral bioavailability in male ICR (CD-1) mouse at 20 mg/kg by LC-MS/MS analysis; type: ADME, organism-based; settings: in vivo
Measure name: bioavailability (%)
Enter your answer as a number in %; do not include the unit.

Problem: Any idea what bioavailability was measured for `CN1CCC(N(C)S(=O)(=O)NC(=O)Nc2c3c(cc4c2CCC4)CCC3)CC1` ?
Result: 99.6
